Origin of the recorded values: patent US10106580B2

Numbered stars: 1 amine (or outer) side, 2 acyl side, 3 side chain; on linkers, the order of the positions; unused ones are H or OH. Bridge positions count the residues as written; N and C are the ends. Square brackets hold non-standard residues; d marks the D form. Peptide text beside a SMILES is read from it. * marks the point of attachment. Phe(3-F) = N[C@@H](Cc1cccc(F)c1)C(=O)O; X2 = CC1CCN([*:1])[C@@H](C(=O)[*:2])C1; X1 = CC1CCN([*:1])[C@H](C(=O)[*:2])C1; X3 = CCC(CC)(C(=O)[*:2])N(C)[*:1]; Heptenoyl(2E) = CCCC/C=C/C(=O)*; NMeAc5c = CNC1(C(=O)O)CCCC1
Record: MIC reported on Methicillin-susceptible S. aureus (ATCC 35556).

{"molecule": "CCCC/C=C/C(=O)N[C@@H](Cc1cccc(F)c1)C(=O)N[C@H]1COC(=O)[C@@H]2CCCN2C(=O)[C@H](C)NC(=O)[C@H]2CCCCN2C(=O)[C@@H]2CCCN2C1=O [Compound 10b]", "relation.sign": ">", "MIC / µg/mL": 312}
{"molecule": "CCCC/C=C/C(=O)N[C@@H](Cc1cccc(F)c1)C(=O)N[C@H]1COC(=O)[C@@H]2CCCN2C(=O)[C@H](C)NC(=O)C(CC)(CC)N(C)C(=O)[C@@H]2CCCN2C1=O [Compound 10e] ({Heptenoyl(2E)}-[Phe(3-F)]SP[X3]AP; ester 2-C)", "relation.sign": "=", "MIC / µg/mL": 78.1}
{"molecule": "CCCC/C=C/C(=O)N[C@@H](Cc1cccc(F)c1)C(=O)N[C@H]1COC(=O)[C@@H]2CCCN2C(=O)[C@H](C)NC(=O)[C@H]2CC(C)CCN2C(=O)[C@@H]2CCCN2C1=O (stereo partly drawn) [Compound 10d] ({Heptenoyl(2E)}-[Phe(3-F)]SP[X2]AP; ester 2-C)", "relation.sign": ">", "MIC / µg/mL": 156}
{"molecule": "CCCC/C=C/C(=O)N[C@@H](Cc1cccc(F)c1)C(=O)N[C@H]1COC(=O)[C@@H]2CCCN2C(=O)[C@H](C)NC(=O)[C@@H]2CC(C)CCN2C(=O)[C@@H]2CCCN2C1=O (stereo partly drawn) [Compound 10c] ({Heptenoyl(2E)}-[Phe(3-F)]SP[X1]AP; ester 2-C)", "relation.sign": "=", "MIC / µg/mL": 0.6}
{"molecule": "CCCC/C=C/C(=O)N[C@@H](Cc1cccc(F)c1)C(=O)N[C@H]1COC(=O)[C@@H]2CCCN2C(=O)[C@H](C)NC(=O)[C@@H]2CCCCN2C(=O)[C@@H]2CCCN2C1=O [Compound 10a]", "relation.sign": "=", "MIC / µg/mL": 1.25}
{"molecule": "CCCC/C=C/C(=O)N[C@@H](Cc1cccc(F)c1)C(=O)N[C@H]1COC(=O)[C@@H]2CCCN2C(=O)[C@H](C)NC(=O)C2(CCCC2)N(C)C(=O)[C@@H]2CCCN2C1=O [Compound 10g] ({Heptenoyl(2E)}-[Phe(3-F)]SP[NMeAc5c]AP; ester 2-C)", "relation.sign": "=", "MIC / µg/mL": 39.1}
